Kindly supply the reported growth inhibition values for the records listed here.
Assay: NCI Yeast Anticancer Drug Screen. Data for the bub3 strain (AID 167)
Settings: S. cerevisiae bub3 mutant strain, at 50.0 µM, stronger effect = higher value
The panel holds about 79,000 compounds, 15% with a hit somewhere; the sample as a whole holds those more often.
Give the value, in units of %, as a plain number.

Task item: # growth inhibition lookup, item CCC[N+]1=C(/C=C/c2cc(C)c3cccnc3c2O)C(C)(C)c2ccccc21
Reply: 92

Task item: # growth inhibition lookup, item O=c1nc(NC(c2ccccc2)(c2ccccc2)c2ccccc2)ccn1CCNCCn1ccc(NC(c2ccccc2)(c2ccccc2)c2ccccc2)nc1=O
Reply: 91

Task item: # growth inhibition lookup, item O=C(O)/C=C/CCC1SCC2NC(=O)NC21 (stereo not given)
Reply: 87.5

Task item: # growth inhibition lookup, item CC/C(=C(\CC)c1ccc(OCCN2CCOCC2)cc1)c1ccc(OCCN2CCOCC2)cc1
Reply: 79.9

Task item: # growth inhibition lookup, item Cc1ccc(NC(=O)/C(CC(=O)c2sc(Nc3ccc(Cl)c(Cl)c3)nc2C)=N\Nc2ccc([N+](=O)[O-])cc2[N+](=O)[O-])c(C)c1
Reply: 96.8

Task item: # growth inhibition lookup, item NS(=O)(=O)c1ccc(N=Cc2c3ccccc3nc3cc(Cl)ccc23)cc1
Reply: 27.6

Task item: # growth inhibition lookup, item CS(=O)(=O)OCCN(CCOS(C)(=O)=O)c1ccc(C=Nc2cc(Cl)c(O)c(Cl)c2)c(Cl)c1
Reply: 1.25

Task item: # growth inhibition lookup, item COc1cccc(C2c3cc4c(cc3OC(N3CCCC3)C2c2ccccc2)OCO4)c1O (stereo not given)
Reply: 26.4

Task item: # growth inhibition lookup, item CCOC(=O)c1c(N)c(=O)n2c3c(cccc13)CC2
Reply: 96.8

Task item: # growth inhibition lookup, item CSc1nc2nn(Cc3ccccc3)cc2c(=O)[nH]1
Reply: -9.9

Task item: # growth inhibition lookup, item O=C(O)c1nc2cc(C(F)(F)F)ccc2nc1Nc1ccc(Cl)c(Cl)c1
Reply: 55.1

Task item: # growth inhibition lookup, item Cn1c(=O)nc2n(-c3ccc(Cl)cc3)c3cc(Cl)ccc3nc-2c1=O
Reply: -6.9

Task item: # growth inhibition lookup, item O=C1C=CC(=NN=C(c2ccccc2)c2ccccc2)C=C1
Reply: 63.9

Task item: # growth inhibition lookup, item COC1=C(C)C(=O)C2=C(C1=O)C1C3CC4=C(C(=O)C(OC)=C(C)C4=O)C(CNC(=O)C(C)=O)N3C(C#N)C(C2)N1C (stereo not given)
Reply: 90.2

Task item: # growth inhibition lookup, item CCCCCCCCCCCC1=NCC(C)N1 (stereo not given)
Reply: 45

Task item: # growth inhibition lookup, item CCN(CC)CCC(=O)OC1C(C)=CC(C)C(=O)CC(C(C)CC2CCC(O)C(OC)C2)OC(=O)C2CCCCN2C(=O)C(=O)[C@@]2(O)OC(CCC2C)CC(OC)\C(C)=C/C=C/C=C/C(C)CC(C)C(=O)C1OC (stereo not given in full)
Reply: 92.8

Task item: # growth inhibition lookup, item CCOc1c(N=Nc2ccc(Cl)cc2)c(-c2ccccc2)nn1C(N)=S
Reply: 92.4

Task item: # growth inhibition lookup, item ON=C1Cc2ccccc2-c2ccccc2C1
Reply: 6.1

Task item: # growth inhibition lookup, item CSc1ncc2c(n1)-c1ccccc1OC2NC1CC1 (stereo not given)
Reply: 14.6

Task item: # growth inhibition lookup, item CCc1ccccc1NC(=O)C(=O)CC(=O)c1ccc(Cl)s1
Reply: -9.55

---

Kindly supply the reported growth inhibition values for the records listed here.
Experiment: NCI Yeast Anticancer Drug Screen. Data for the mlh1 rad18 strain (AID 175)
Conditions: S. cerevisiae mlh1 rad18 strain growth inhibition; at 5.0 µM (retest, dose inferred, filed as 0.5); stronger effect = higher value
The panel holds about 79,000 compounds, 15% with a hit somewhere; the sample as a whole holds those more often.
Give the value, in units of %, as a plain number.

Task item: # growth inhibition lookup, item O=[N+]([O-])c1ccccc1N=Nc1c(O)[nH]c2cccc(C(F)(F)F)c12
Reply: 84

Task item: # growth inhibition lookup, item Fc1ccc(NC(=S)SCc2ccc(Cl)cc2)c(F)c1
Reply: 7

Task item: # growth inhibition lookup, item COc1ccc(-c2c(COC(C)=O)c(COC(C)=O)c3n2CCC3)cc1
Reply: -6

Task item: # growth inhibition lookup, item O=C1CCCC2c3ccccc3NC12 (stereo not drawn)
Reply: -139

Task item: # growth inhibition lookup, item Oc1ccc(C2(c3ccc(O)c(Cl)c3)CC3CCC2C3)cc1Cl (stereo not drawn)
Reply: 99

Task item: # growth inhibition lookup, item Fc1ccc2[nH]ccc2c1
Reply: -19

Task item: # growth inhibition lookup, item CC(=O)OC(C)C1C2=C(C(=O)CC1(C)O)C(=O)c1c(ccc(-c3ccc4c(c3O)C(=O)C3=C(C4=O)C(C(C)OC(C)=O)C(C)(O)CC3=O)c1O)C2=O (stereo not drawn)
Reply: 28

Task item: # growth inhibition lookup, item CCCCCCCCN/N=C(/C)CCCCCO
Reply: -1

Task item: # growth inhibition lookup, item N#C/C(=C1C=C/C(=N/O)C=C/1Cl)c1ccccc1
Reply: -11

Task item: # growth inhibition lookup, item CCN(CC)CCNc1c(O)cc(C)c2sc3ccccc3c(=O)c12
Reply: 2

Task item: # growth inhibition lookup, item COc1ccc2nc3cc(Cl)ccc3c(NCCCCN(C)C)c2c1
Reply: 0

Task item: # growth inhibition lookup, item CN(C)CCNc1ccc2nnn3c4ccc(O)cc4c(=O)c1c23
Reply: 27

Task item: # growth inhibition lookup, item ClC(Cl)(Cl)C(NCCN1CCOCC1)c1ccccc1 (stereo not drawn)
Reply: 99

Task item: # growth inhibition lookup, item O=C(Nc1cc(Cl)ccc1Oc1cc(Cl)c(Cl)cc1S(=O)(=O)O)Nc1cc(Cl)ccc1Oc1cc(Cl)c(Cl)cc1S(=O)(=O)O
Reply: -4

Task item: # growth inhibition lookup, item Cc1cccc(NC(=O)C(=O)C(C2OC(=O)c3ccccc32)[N+](=O)[O-])c1C (stereo not drawn)
Reply: -21

Task item: # growth inhibition lookup, item N#CC1C(=O)NC(=O)CC1c1ccccc1 (stereo not drawn)
Reply: 13

Task item: # growth inhibition lookup, item CCCCCCCCCCCCCCSC(=N)N
Reply: 95

Task item: # growth inhibition lookup, item O=NNc1ncc(Sc2ccccc2)nc1Sc1ccccc1
Reply: 4

---

Test: NCI Yeast Anticancer Drug Screen. Data for the cln2 rad14 strain (AID 165);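 further: 0% = growth equal to vehicle treated cultures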
Details: S. cerevisiae cln2 rad14 strain, at 50.0 µM (retest, dose inferred, filed as 5.0), stronger effect = higher value
About 79,000 compounds went through this panel and 15% of them were active in at least one assay; those are over-represented in the sample as a whole.
measurementKind: growth inhibition (%)
Give the value, in units of %, as a plain number.

Task item: # growth inhibition lookup, item Cc1ccc(S(=O)(=O)C(=S)Sc2ccccc2)cc1
Reply: 63

Task item: # growth inhibition lookup, item CC(C)C(O)C(C)C
Reply: -1

Task item: # growth inhibition lookup, item CC(C)CCCC(C)C1CCC2(C)C3=CCC4C(C)(CCC(O)C4(C)C)C3=CCC12C (stereo unspecified)
Reply: 84

Task item: # growth inhibition lookup, item CC[N+](CC)(CC)Cc1ccc(C[N+](CC)(CC)CC)cc1
Reply: 7

Task item: # growth inhibition lookup, item NC(=S)N1N=C2c3ccccc3CC[C@H]2[C@@H]1c1cccs1
Reply: 42

Task item: # growth inhibition lookup, item O=C(N/N=C/c1ccccc1O)C1Cc2ccccc2C1C(Cl)Cl (stereo unspecified)
Reply: 95

Task item: # growth inhibition lookup, item c1ccc2c(c1)CCc1[nH]c3c(c1-2)-c1ccccc1CC3
Reply: 95

Task item: # growth inhibition lookup, item CN(C)CCNc1ccc2nnn3c4ccc(O)cc4c(=O)c1c23
Reply: 32

Task item: # growth inhibition lookup, item CS(=O)(=O)C(c1nc2nnc(NC(=O)Nc3ccc(Cl)cc3)n2[nH]c1=O)c1nc2nnc(NC(=O)Nc3ccc(Cl)cc3)n2[nH]c1=O
Reply: 3

Task item: # growth inhibition lookup, item COc1cccc2c1C(=O)c1c(O)c3c(c(O)c1C2=O)CC(O)(C(=O)CO)CC3OC1CC(N)C(O)C(C)O1.[Cl][Pt+2][Cl].[NH2-].[NH2-] (stereo unspecified)
Reply: 87

Task item: # growth inhibition lookup, item C/C=C(/CCC1NCCC2c3ccccc3NC12)[Si](C)(C)C (stereo unspecified)
Reply: 0

---

Assay: NCI Yeast Anticancer Drug Screen. Data for the cln2 rad14 strain (AID 165);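 further: 0% = growth equal to vehicle treated cultures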
Details: S. cerevisiae cln2 rad14 strain, at 50.0 µM, stronger effect = higher value
Compounds without any hit were thinned out: in the full panel of roughly 79,000, 15% have a hit.
Classify by measured growth inhibition: yes if it is equal to or exceeds 50%, no if it is smaller.

Task item: Confirm if growth inhibition reported for the compound Cc1cccc(-c2nnc(-c3cccc(C)c3)o2)c1 is 50% or above.
Reply: no

Task item: Confirm if growth inhibition reported for the compound CN(Nc1ccc(Cl)cc1)c1ccc(Cl)cc1 is 50% or above.
Reply: yes

Task item: Confirm if growth inhibition reported for the compound CC1C/C(=N\N(C)C)C(C#N)(C#N)C1(C#N)C#N (stereo unspecified) is 50% or above.
Reply: no

Task item: Confirm if growth inhibition reported for the compound CCN(CC)CCCC(C)Nc1c2ccccc2nc2c(C)cc(Br)cc12 (stereo unspecified) is 50% or above.
Reply: yes

Task item: Confirm if growth inhibition reported for the compound CCCCCCCCCc1cc(O)c(O)cc1CCCCCCCCC is 50% or above.
Reply: yes

Task item: Confirm if growth inhibition reported for the compound Cc1ccnc(NCCN(C)C)c1 is 50% or above.
Reply: yes

Task item: Confirm if growth inhibition reported for the compound OC1c2ccccc2C2(O)C1C(c1ccccc1)C(c1ccccc1)C2(O)c1ccccc1 (stereo unspecified) is 50% or above.
Reply: yes

Task item: Confirm if growth inhibition reported for the compound O=C(CCC(NC(=O)OCc1ccccc1)C(=O)OCc1ccccc1)NC(CSCc1ccccc1)C(=O)NCC(=O)Oc1c(Cl)c(Cl)c(Cl)c(Cl)c1Cl (stereo unspecified) is 50% or above.
Reply: no

Task item: Confirm if growth inhibition reported for the compound O=C(N=Nc1c(O)[nH]c2ccccc12)C(O)(c1ccccc1)c1ccccc1 is 50% or above.
Reply: no

Task item: Confirm if growth inhibition reported for the compound CC1=NOC(=O)/C1=C/C=C/c1ccccc1 is 50% or above.
Reply: no

Task item: Confirm if growth inhibition reported for the compound O=C1Nc2ccccc2C(=O)C1(Cc1ccccc1)C(=O)c1ccccc1 (stereo unspecified) is 50% or above.
Reply: yes

Task item: Confirm if growth inhibition reported for the compound COc1ccc2ccc(OC)c(C=O)c2c1 is 50% or above.
Reply: no

Task item: Confirm if growth inhibition reported for the compound O=C(CNC(=O)Nc1ccc(NC(=O)NCC(=O)Nc2ccc(C3=NCCN3)cc2)cc1)Nc1ccc(C2=NCCN2)cc1 is 50% or above.
Reply: no

Task item: Confirm if growth inhibition reported for the compound CCCC(=O)NCCNC(=O)CCC is 50% or above.
Reply: no

Task item: Confirm if growth inhibition reported for the compound CCC(C)SC1SCC2C(=O)N(C)C3(CC3C)C(=O)OCC(NC(=O)c3nc4ccccc4cc3O)C(=O)NC(C)C(=O)N(C)C1C(=O)N(C)C1(CC1C)C(=O)OCC(NC(=O)c1nc3ccccc3cc1O)C(=O)NC(C)C(=O)N2C (stereo unspecified) is 50% or above.
Reply: yes

Task item: Confirm if growth inhibition reported for the compound CCN(CC)c1ccc(/C=C2/C[N+](C)(C)C/C(=C/c3ccc(N(CC)CC)cc3)C2=O)cc1 is 50% or above.
Reply: yes

Task item: Confirm if growth inhibition reported for the compound N=Cc1cc([N+](=O)[O-])ccc1O is 50% or above.
Reply: yes

Task item: Confirm if growth inhibition reported for the compound Cc1nn(C(=O)c2ccccc2O)c2c1C(c1ccco1)SC(N)=N2 (stereo unspecified) is 50% or above.
Reply: no

Task item: Confirm if growth inhibition reported for the compound C=C(CC)C[C@@H]1C[C@]2(C(=O)OC)c3[nH]c4ccccc4c3CCN2C1=O is 50% or above.
Reply: yes

Task item: Confirm if growth inhibition reported for the compound Cc1nc2c([N+](=O)[O-])c(N3CCCCC3)c([N+](=O)[O-])cc2[nH]1 is 50% or above.
Reply: yes

Task item: Confirm if growth inhibition reported for the compound CCCN(CCC)C(=O)CCC(C)=O is 50% or above.
Reply: no

Task item: Confirm if growth inhibition reported for the compound O=C1C(Cl)C(c2cc(Br)cc(Br)c2O)N1n1cnc2ccccc2c1=O (stereo unspecified) is 50% or above.
Reply: yes

Task item: Confirm if growth inhibition reported for the compound O=[N+]([O-])C(/C=C(\Cl)n1nnc2ccccc21)=C(/Cl)n1nnc2ccccc21 is 50% or above.
Reply: no

Task item: Confirm if growth inhibition reported for the compound CC1COC(=O)O1 (stereo unspecified) is 50% or above.
Reply: no

Task item: Confirm if growth inhibition reported for the compound CCCC1c2ccc(O)cc2CC1c1ccc(O)cc1 (stereo unspecified) is 50% or above.
Reply: yes

Task item: Confirm if growth inhibition reported for the compound NC(=O)NC(=O)N/N=C/c1ccc([N+](=O)[O-])o1 is 50% or above.
Reply: no

Task item: Confirm if growth inhibition reported for the compound COc1nc(NC2OCC(O)C(O)C2O)c(Cl)c(=O)n1C (stereo unspecified) is 50% or above.
Reply: no

Task item: Confirm if growth inhibition reported for the compound CCOC(=O)c1c(Cl)nnc(-c2ccccc2)c1-c1ccccc1 is 50% or above.
Reply: yes

Task item: Confirm if growth inhibition reported for the compound Cn1c(=S)c2[nH]c(SCCN3CCCC3)nc2n(C)c1=O is 50% or above.
Reply: no

Task item: Confirm if growth inhibition reported for the compound CC(=O)O[C@H]1CC[C@]2(C)C34OC3C[C@]3(C)[C@@H](C(C)=O)CC[C@H]3[C@]43C=C[C@@]2(C1)C1C(=O)OC(=O)C13 (stereo partly specified) is 50% or above.
Reply: yes

Task item: Confirm if growth inhibition reported for the compound CCCCCCC1CC(=O)C1(Cl)Cl (stereo unspecified) is 50% or above.
Reply: yes

Task item: Confirm if growth inhibition reported for the compound CN(C)N=Nc1ccc(-c2ccccc2)cc1 is 50% or above.
Reply: yes

Task item: Confirm if growth inhibition reported for the compound Oc1c(Cl)cc(C(c2cc(Cl)c(O)c(Cl)c2)C(Cl)(Cl)Cl)cc1Cl is 50% or above.
Reply: yes

Task item: Confirm if growth inhibition reported for the compound CC(=O)CCCOC(C)=O is 50% or above.
Reply: no

Task item: Confirm if growth inhibition reported for the compound O=[N+]([O-])c1ccc(NNS(=O)(=O)c2ccccc2)c([N+](=O)[O-])c1 is 50% or above.
Reply: no

Task item: Confirm if growth inhibition reported for the compound N#CC1=C(N)OC(c2ccccc2)=C(C#N)C1c1ccccc1 (stereo unspecified) is 50% or above.
Reply: yes
